STUDY CONDITIONS: human, serum;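 further: human clinical chemistry: moderate when serum ALT or AST reaches 6× upper normal limit or alkaline phosphatase 1.7×, value counts indexed literature references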
Lab note: compare Hepatotoxicity (moderate) against 1. Equal or greater, write true. Smaller, write false.

Test whether the compound CC[C@]1(O)CC[C@H]2[C@@H]3CCC4=CC(=O)CC[C@@H]4[C@H]3CC[C@@]21C [NORETHANDROLONE] records Hepatotoxicity (moderate) of 1 or higher.
true

Threshold query (Hepatotoxicity (moderate) >= 1) on CC(CCc1ccccc1)NCC(O)c1ccc(O)c(C(N)=O)c1 (stereo not given) [LABETALOL]
true

In plain terms: is recorded Hepatotoxicity (moderate) at least 1 for COc1cc2nc(N3CCN(C(=O)C4COc5ccccc5O4)CC3)nc(N)c2cc1OC (stereo not given) [DOXAZOSIN] ?
true

Record CC(C(=O)O)c1ccc(CC2CCCC2=O)cc1 (stereo not given) [LOXOPROFEN] ; criterion: Hepatotoxicity (moderate) no lower than 1. Met?
false

Is Hepatotoxicity (moderate) for CC1=C(C/C=C(\C)CCC[C@H](C)CCC[C@H](C)CCCC(C)C)C(=O)c2ccccc2C1=O [PHYTONADIONE] at or above 1?
false

Could you verify whether the entry Nc1nc(O)c2ncn(COC(CO)CO)c2n1 [GANCICLOVIR] shows Hepatotoxicity (moderate) of no less than 1?
true

Check this compound for Hepatotoxicity (moderate) at or above 1: CCCCCCCCCCCCCCCCSCC(COC)COP(=O)([O-])OCC[N+](C)(C)C (stereo not given) [ILMOFOSINE]
true
